Overview of reported growth inhibition across a group of compounds:
- Protocol Summary: S. cerevisiae growth inhibition in restrictive medium, OD615, pilot screen, restrictive growth control, yeast lifespan reduction project (AID 706);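 note: modified DeaD lifespan yeast strain shifted to restrictive glucose medium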
- Test Parameters: OD615, 48 h, at 10 µM, active compounds read high
The source made the active and inactive calls.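 Rule for the calls: active = growth inhibition above a set limit, 3 SD over mean compound inhibition, in both replicates (cut at about 43% in these data); inconclusive = above the limit in only one replicate; inactive = at or below the limit in both replicates.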
Value Type: growth inhibition

> print(dat)
                                    compound     measured.value
 1  CC1CN(S(=O)(=O)c2ccc(C(=O)Nc3nnc(-c4ccc5c(c4)CCCC5)o3)cc2)CC(C)O1 (centres undefined)   1.69% (inactive)
 2  CCOC(=O)CSC(CC)C(=O)Nc1nnc(C(C)C)s1 (centres undefined)   9.58% (inactive)
 3        Cc1oc2c(O)c(O)ccc2c(=O)c1-c1ccccc1   1.24% (inactive)
 4        CN(C)CCNc1ncnc2c1cnn2-c1ccc(Cl)cc1  -3.57% (inactive)
 5         Cc1oc2cc(O)ccc2c(=O)c1Oc1ccccc1Br  -12.2% (inactive)
 6  CCCC(=O)c1cc(F)c(N2CCN(S(=O)(=O)c3ccccc3)CC2)cc1C  -27.6% (inactive)
 7  COc1ccc(-c2nc(N3CCCC3)[nH]c(=O)c2C#N)cc1   0.48% (inactive)
 8  COc1ccc(OCc2nc(C#N)c(N3CCN(c4ccc(OC)cc4)CC3)o2)cc1  -1.77% (inactive)
 9  CCOC(=O)c1c(C)oc2ccc(OC(=O)N3CCOCC3)cc12  0.815% (inactive)
10              Nc1cc(N)cc(-c2nc3ccccc3o2)c1   6.39% (inactive)
11  Cc1ccc(C)c2[nH]c(=O)c(CCNC(=O)c3cc4ccccc4o3)cc12  -11.6% (inactive)
12       Clc1ccc(Nc2ncnc3c2cnn3-c2ccccc2)cc1  -13.1% (inactive)
13         c1ccc(C2(Cn3ccc4ccccc43)OCCO2)cc1  -10.5% (inactive)
14  Oc1c(C(c2cccs2)N2CCOCC2)sc2ncnn12 (centres undefined)  -3.88% (inactive)
15   Cn1ccnc1C(O)c1ccco1 (centres undefined)  -3.72% (inactive)
16  CCn1c(=O)c2cc(C(=O)Nc3cc(C)on3)sc2c2ccccc21  -25.2% (inactive)
17        Cc1ccc(Nc2cc(C)nc3nc(C)nn23)c(C)c1   8.84% (inactive)
18   Cn1cc(Cl)c(C(=O)N(Cc2ccccc2)c2ccccn2)n1  -1.84% (inactive)
19   O=c1c2cnn(-c3ccccc3)c2ncn1Cc1cccc(Cl)c1   2.59% (inactive)
20  CCn1c(SCC(=O)Nc2cccc(C)c2)nc2c(c1=O)SC(C)C2 (centres undefined)  -4.62% (inactive)
21  O=C(c1ccc(NS(=O)(=O)c2cccs2)cc1)N1CCCCC1  -2.64% (inactive)
22               Cc1cc(C)nc(SCc2ccccc2C#N)n1  -6.26% (inactive)
23       Cc1ccc(S(=O)(=O)NCC(=O)N2CCCCC2)cc1  -11.9% (inactive)
24  Cn1cc(C2NC(=O)c3c(sc4c3CCCC4)N2)c2ccccc21 (centres undefined)   2.46% (inactive)
